- Tested on: brain tissue
- ASSAY_PROCEDURE: Individual peptide variants of A3 on phage, brain selectivity index vs T7-lacZ
- Assay type: in vivo, FVB or BALB/c mice
- APPLIED_CONDITIONS: 0.5-1×10^10 pfu co-injected with T7-lacZ, 2 hours circulation
REPORTED_METRIC: Brain Targeting Activity

// below: answered substances
• CRDVNECD [reference compound] = No
• CDITEYC [reference compound] = No
• CGALCY = No
• CAGALCY [T7-A3] = Yes

Input: I have this substance here, CGGALCY , and I need its recorded Brain Targeting Activity.
Output: No

Input: Item under review: CPADCY [reference compound] . Reported Brain Targeting Activity?
Output: No

Input: I have this substance here, CAGGLCY , and I need its recorded Brain Targeting Activity.
Output: No

Input: Find the recorded Brain Targeting Activity belonging to CAGALCF and report it.
Output: Yes
